Biological target: recombinant soluble homotrimeric HA of A/Indonesia/5/05 (H5N1) (Influenza A virus A/Indonesia/5/2005(H5N1))
Experiment: HA microarray, BCC supernatant
Details: remark: other sources report otherwise
readout-type: Trimeric HA Binding: RLU

[
  {
    "binder": "TCN-534 (5249_B02) (antibody, V domains shown) VH: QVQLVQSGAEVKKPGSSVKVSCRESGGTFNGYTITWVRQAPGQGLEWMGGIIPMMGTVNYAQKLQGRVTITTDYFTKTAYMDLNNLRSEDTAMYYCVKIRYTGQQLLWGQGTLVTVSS VL: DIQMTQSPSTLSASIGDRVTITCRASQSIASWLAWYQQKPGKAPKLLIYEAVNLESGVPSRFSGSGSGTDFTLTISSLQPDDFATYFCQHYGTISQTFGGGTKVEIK",
    "readout-type": "Trimeric HA Binding: RLU",
    "value-reported": "46400 RLU"
  },
  {
    "binder": "TCN-528 (5087_P17) (antibody, V domains shown) VH: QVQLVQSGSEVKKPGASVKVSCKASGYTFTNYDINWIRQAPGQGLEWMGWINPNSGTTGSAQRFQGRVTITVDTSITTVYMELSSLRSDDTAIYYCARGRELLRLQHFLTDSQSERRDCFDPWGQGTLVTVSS VL: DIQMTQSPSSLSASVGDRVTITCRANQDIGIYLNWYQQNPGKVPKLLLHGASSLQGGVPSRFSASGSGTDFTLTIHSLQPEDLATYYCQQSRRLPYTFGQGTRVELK",
    "readout-type": "Trimeric HA Binding: RLU",
    "value-reported": "42800 RLU"
  },
  {
    "binder": "TCN-537 (3194_D21) (antibody, V domains shown) VH: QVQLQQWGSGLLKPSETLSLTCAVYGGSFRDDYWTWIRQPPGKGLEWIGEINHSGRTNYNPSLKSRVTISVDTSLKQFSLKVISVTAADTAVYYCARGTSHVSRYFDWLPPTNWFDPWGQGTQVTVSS VL: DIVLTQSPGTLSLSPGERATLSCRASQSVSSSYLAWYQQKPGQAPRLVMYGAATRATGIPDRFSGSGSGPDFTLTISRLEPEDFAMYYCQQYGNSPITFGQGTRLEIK",
    "readout-type": "Trimeric HA Binding: RLU",
    "value-reported": "14900 RLU"
  },
  {
    "binder": "TCN-563 (5237_B21) (antibody, V domains shown) VH: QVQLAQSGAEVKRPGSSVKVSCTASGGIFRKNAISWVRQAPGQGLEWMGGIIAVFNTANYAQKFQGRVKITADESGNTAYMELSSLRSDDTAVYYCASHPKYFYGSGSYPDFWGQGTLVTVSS VL: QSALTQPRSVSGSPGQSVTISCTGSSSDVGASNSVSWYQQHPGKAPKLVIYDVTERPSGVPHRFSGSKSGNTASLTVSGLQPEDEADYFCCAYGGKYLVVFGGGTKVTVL",
    "readout-type": "Trimeric HA Binding: RLU",
    "value-reported": "39500 RLU"
  },
  {
    "binder": "TCN-553 (5261_C18) (antibody, V domains shown) VH: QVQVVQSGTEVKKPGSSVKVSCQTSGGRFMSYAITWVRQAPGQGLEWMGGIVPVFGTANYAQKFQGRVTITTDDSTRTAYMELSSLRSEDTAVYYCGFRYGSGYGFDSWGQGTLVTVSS VL: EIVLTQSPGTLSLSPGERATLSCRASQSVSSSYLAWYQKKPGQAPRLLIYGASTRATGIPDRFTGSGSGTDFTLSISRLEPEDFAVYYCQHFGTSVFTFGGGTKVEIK",
    "readout-type": "Trimeric HA Binding: RLU",
    "value-reported": "24400 RLU"
  },
  {
    "binder": "TCN-527 (5086_C06) (antibody, V domains shown) VH: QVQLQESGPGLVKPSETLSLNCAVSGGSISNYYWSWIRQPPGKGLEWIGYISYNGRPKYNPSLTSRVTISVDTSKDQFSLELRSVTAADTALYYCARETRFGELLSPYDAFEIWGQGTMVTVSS VL: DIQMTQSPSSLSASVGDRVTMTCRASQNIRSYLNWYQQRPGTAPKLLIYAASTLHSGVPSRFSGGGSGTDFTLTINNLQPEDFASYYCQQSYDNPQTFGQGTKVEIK",
    "readout-type": "Trimeric HA Binding: RLU",
    "value-reported": "23800 RLU"
  },
  {
    "binder": "TCN-538 (3206_O17) (antibody, V domains shown) VH: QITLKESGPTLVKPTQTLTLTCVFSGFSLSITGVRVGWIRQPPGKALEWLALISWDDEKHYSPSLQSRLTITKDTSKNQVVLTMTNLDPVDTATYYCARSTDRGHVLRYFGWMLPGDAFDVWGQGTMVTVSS VL: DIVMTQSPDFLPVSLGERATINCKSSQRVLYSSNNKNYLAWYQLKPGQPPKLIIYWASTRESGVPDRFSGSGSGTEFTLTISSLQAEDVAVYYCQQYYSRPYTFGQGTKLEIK",
    "readout-type": "Trimeric HA Binding: RLU",
    "value-reported": "26400 RLU"
  },
  {
    "binder": "TCN-522 (3212_I12) (antibody, V domains shown) VH: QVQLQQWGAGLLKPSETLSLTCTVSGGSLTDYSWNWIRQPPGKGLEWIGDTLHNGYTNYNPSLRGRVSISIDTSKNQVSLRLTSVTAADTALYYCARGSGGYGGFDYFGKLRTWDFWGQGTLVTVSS VL: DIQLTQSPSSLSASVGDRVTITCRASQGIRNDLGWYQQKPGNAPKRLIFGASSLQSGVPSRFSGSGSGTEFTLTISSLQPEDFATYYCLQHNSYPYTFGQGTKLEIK",
    "readout-type": "Trimeric HA Binding: RLU",
    "value-reported": "67 RLU"
  },
  {
    "binder": "TCN-521 (3280_D18) (antibody, V domains shown) VH: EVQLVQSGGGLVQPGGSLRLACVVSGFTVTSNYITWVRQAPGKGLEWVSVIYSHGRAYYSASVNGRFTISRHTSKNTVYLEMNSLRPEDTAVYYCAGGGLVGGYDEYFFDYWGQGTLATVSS VL: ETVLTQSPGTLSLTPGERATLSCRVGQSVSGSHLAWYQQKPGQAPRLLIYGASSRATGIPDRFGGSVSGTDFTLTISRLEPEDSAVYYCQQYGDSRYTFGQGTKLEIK",
    "readout-type": "Trimeric HA Binding: RLU",
    "value-reported": "31500 RLU"
  },
  {
    "binder": "TCN-552 (5249_I23) (antibody, V domains shown) VH: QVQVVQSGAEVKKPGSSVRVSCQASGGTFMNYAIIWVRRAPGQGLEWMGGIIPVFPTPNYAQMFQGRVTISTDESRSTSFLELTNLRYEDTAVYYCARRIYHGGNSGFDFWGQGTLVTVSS VL: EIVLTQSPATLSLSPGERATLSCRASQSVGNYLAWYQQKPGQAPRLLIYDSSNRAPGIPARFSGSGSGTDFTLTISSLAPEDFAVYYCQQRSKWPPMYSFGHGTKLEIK",
    "readout-type": "Trimeric HA Binding: RLU",
    "value-reported": "43600 RLU"
  }
]
